Numbers sourced from PubChem BioAssay (NCI).

# System: U251 CNS
# experimental_protocol: NCI tumour cell line growth inhibition, 48 h
Where a SMILES comes first, the peptide text is derived from it.
Mark Condition met for reported TGI of 4 µM or greater; mark Condition not met for anything smaller.

Kindly determine if TGI recorded for O=C1c2c(Cl)c(Cl)c(Cl)c(Cl)c2C(=O)C2(Cl)CC=CCC12Cl (configuration not stated) is above or exactly 4 µM.
Condition not met

Kindly determine if TGI recorded for COC(=O)/N=[N+](\[O-])C(c1ccccc1)c1ccccc1 is above or exactly 4 µM.
Condition met

Kindly determine if TGI recorded for COc1ccc2c(c1OC)C(=O)N/C2=C\c1c(CCN(C)C)cc2c(c1OC)OCO2 is above or exactly 4 µM.
Condition met

Kindly determine if TGI recorded for O=C1CC(N2C(=O)/C(=C/C(Cl)=C\c3ccc([N+](=O)[O-])cc3)SC2=S)C(=O)N1c1ccc(O)cc1 (configuration not stated) is above or exactly 4 µM.
Condition not met

Kindly determine if TGI recorded for C=C1CC2(CCS(=O)(=O)c3ccccc32)OC1=O (configuration not stated) is above or exactly 4 µM.
Condition met

Kindly determine if TGI recorded for O=c1[nH]c2c(c(=O)[nH]1)C(c1ccc([N+](=O)[O-])cc1)c1c([nH]c(=O)[nH]c1=O)O2 is above or exactly 4 µM.
Condition met

Kindly determine if TGI recorded for O=S(=O)(NCCCNc1cc(-c2cn(-c3ccccc3)nc2-c2cccc(O)c2)ccn1)c1ccc(Br)cc1 is above or exactly 4 µM.
Condition met

Kindly determine if TGI recorded for C/C=C\C(CC(=O)OC)CC(=O)N(CCC1CN(S(=O)(=O)C(F)(F)F)c2ccccc21)Cc1ccc(OC)cc1OC (configuration not stated) is above or exactly 4 µM.
Condition met

Kindly determine if TGI recorded for COC(=O)C(=O)C(/C(=N/N)C(=O)Nc1ccccc1C(N)=O)c1nc2ccc([N+](=O)[O-])cc2[nH]c1=O (configuration not stated) is above or exactly 4 µM.
Condition met

Kindly determine if TGI recorded for Cc1ccc(C(=O)Oc2ccc(/C=C3\CCC/C(=C\c4ccc(OC(=O)c5ccc(C)cc5)cc4)C3=O)cc2)cc1 is above or exactly 4 µM.
Condition met

Kindly determine if TGI recorded for COc1ccc2nc3cccc([N+](=O)[O-])c3c(NC(C)CN(C)C)c2c1 (configuration not stated) is above or exactly 4 µM.
Condition not met

Kindly determine if TGI recorded for CCC(C)C(NC(=O)C(CC(C)C)NC(=O)CNC(=O)C(NC(=O)C1CCCN1C(=O)C(CC(C)C)NC(=O)C(N)Cc1ccccc1)C(C)CC)C(=O)NC(CC(C)C)C(N)=O (configuration not stated) (H-FLPIGLIL-NH2; configuration not given here) is above or exactly 4 µM.
Condition met

Kindly determine if TGI recorded for Cc1ccc(C(=O)N/N=C(\N=Nc2ccccc2Cl)c2ccc(N(C)C)cc2)cc1 is above or exactly 4 µM.
Condition met

Kindly determine if TGI recorded for CCC12C=CCN3CCC4(c5cc(C(c6ccc(OC)cc6)C6Cc7ccccc7N6)c(OC)cc5N(C)C4C(O)(C(=O)OC)C1O)C32 (configuration not stated) is above or exactly 4 µM.
Condition met

Kindly determine if TGI recorded for CC(C)(C)[Si](C)(C)OCC1OC(n2ccc(=O)[nH]c2=O)C(O[Si](C)(C)C(C)(C)C)[C@]12O[C@@H]2CO (some centres not stated) is above or exactly 4 µM.
Condition met

Kindly determine if TGI recorded for Cc1ccccc1C(C(=O)NC1CCCCC1)N(C(=O)CNc1ncccc1F)c1cccc(F)c1 (configuration not stated) is above or exactly 4 µM.
Condition met

Kindly determine if TGI recorded for CC(=O)Nc1cc2nc3n(c2cc1C)CCC3OC(C)=O (configuration not stated) is above or exactly 4 µM.
Condition met
